Each recorded value in this set is attributed to ChEMBL document CHEMBL4266059.

- TEST: Selectivity index, ratio of IC50 for HAF to IC50 for human HCT116 cells
- Type: toxicity
- ASSAY_CONTEXT: HAF cells versus HCT116 cells, read-out: Ratio IC50
ENDPOINT_NAME: selectivity ratio

Example molecules with recorded selectivity ratio:
COc1cc2c(cc1C(=O)NNc1ccc(OC(F)(F)F)cc1)CC[C@H]1C(C)(C)C(=O)C(C#N)=C[C@]21C | 2.8 to 5
COc1cc2c(cc1C(=O)Nc1cccc(OC(F)(F)F)c1)CC[C@H]1C(C)(C)C(=O)C(C#N)=C[C@]21C | 6.2 to 8.3
COc1cc2c(cc1C(=O)Nc1ccc(OC(F)(F)F)cc1)CC[C@H]1C(C)(C)C(=O)C(C#N)=C[C@]21C | 5.4 to 10.7
CC1(C)C(=O)C(C#N)=C[C@]2(C)c3cc(O)c(C(=O)Nc4ccc(OC(F)(F)F)cc4)cc3CC[C@@H]12 | 4.5 to 6.9
COc1cc(Br)c(Nc2nc(-c3c(C)nc4ncccn34)cs2)c(Br)c1 | 1.6 to 1.7

Now turn to the next molecule.
Query: Assign selectivity ratio to the following record: `COc1cc2c(cc1C(=O)NCc1ccc(OC(F)(F)F)cc1)CC[C@H]1C(C)(C)C(=O)C(C#N)=C[C@]21C`
Response: 3.2 to 5

----------
- TEST: Selectivity index, ratio of IC50 for HAF to IC50 for human HT-29 cells
- Type: toxicity
- ASSAY_CONTEXT: HAF cells versus HT-29 cells, read-out: Ratio IC50
Reported selectivity ratio values are given for each entry in this list.

Example entries and their recorded answers appear below.
COc1cc2c(cc1C(=O)NNc1ccc(OC(F)(F)F)cc1)CC[C@H]1C(C)(C)C(=O)C(C#N)=C[C@]21C | 2.8 to 5
COc1cc2c(cc1C(=O)Nc1ccc(OC(F)(F)F)cc1)CC[C@H]1C(C)(C)C(=O)C(C#N)=C[C@]21C | 5.4 to 10.7
COc1cc2c(cc1C(=O)NCc1ccc(OC(F)(F)F)cc1)CC[C@H]1C(C)(C)C(=O)C(C#N)=C[C@]21C | 3.2 to 5

Query: Specify selectivity ratio for `CC1(C)C(=O)C(C#N)=C[C@]2(C)c3cc(O)c(C(=O)Nc4ccc(OC(F)(F)F)cc4)cc3CC[C@@H]12` and stop.
Response: 4.5 to 6.9

Query: Output measured selectivity ratio for this item: `COc1cc2c(cc1C(=O)Nc1cccc(OC(F)(F)F)c1)CC[C@H]1C(C)(C)C(=O)C(C#N)=C[C@]21C`
Response: 6.2 to 8.3

----------
- TEST: Selectivity index, ratio of IC50 for HAF to IC50 for human HCT8 cells
- Format: toxicity
- ASSAY_CONTEXT: HAF cells versus HCT8 cells, read-out: Ratio IC50
ENDPOINT_NAME: selectivity ratio

Examples with their reported selectivity ratio follow.
COc1cc2c(cc1C(=O)Nc1cccc(OC(F)(F)F)c1)CC[C@H]1C(C)(C)C(=O)C(C#N)=C[C@]21C | 6.2 to 8.3
COc1cc2c(cc1C(=O)NNc1ccc(OC(F)(F)F)cc1)CC[C@H]1C(C)(C)C(=O)C(C#N)=C[C@]21C | 2.8 to 5
COc1cc2c(cc1C(=O)Nc1ccccc1OC(F)(F)F)CC[C@H]1C(C)(C)C(=O)C(C#N)=C[C@]21C | 7.3 to 13.1
COc1cc2c(cc1C(=O)NCc1ccc(OC(F)(F)F)cc1)CC[C@H]1C(C)(C)C(=O)C(C#N)=C[C@]21C | 3.2 to 5

Please examine the following record next.
Query: Provide one value: measured selectivity ratio of `COc1cc2c(cc1C(=O)Nc1ccc(OC(F)(F)F)cc1)CC[C@H]1C(C)(C)C(=O)C=C[C@]21C`
Response: 3 to 3.8
